- MEASURED_TARGET: Calmodulin-1 (Homo sapiens)
- PROCEDURE_SUMMARY: CALM1 binders on microarrays, EGTA buffer, profiling panel, biochemical, small-molecule microarray, Cy5-labelled CALM1 (AID 1111);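 also: labelled calmodulin applied in Tris saline Tween buffer holding calcium plus EGTA and DTT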
- ASSAY_CONDITIONS: Cy5-CALM1 binding fluorescence, higher = more signal
Please enter condition met where composite z-score is greater than or equal to -0.03, and condition not met where it is lower.

Here are 8 compounds together with their reported answers.
INSERT INTO measurements (compound, measured_target, group_label) VALUES
  ('COc1cccc(C(=O)O[C@H]2CC[C@]3(C)C4=C(CCC3C2(C)C)[C@]2(C)CC[C@H]([C@H](C)CCCC(C)C)[C@@]2(C)CC4)c1 (some centres undefined)', 'Calmodulin-1 (Homo sapiens)', 'condition not met'),
  ('O=c1cccc(C=Cc2ccccc2)o1', 'Calmodulin-1 (Homo sapiens)', 'condition not met'),
  ('NCCCCCCNC(=O)[C@H]1C[C@H]2C(=O)NCC(=O)N2[C@H]1c1cccc(OCCO)c1', 'Calmodulin-1 (Homo sapiens)', 'condition not met'),
  ('Cc1ccc(S[C@]2(C(=O)NC3CC3)CC(=O)N(Cc3ccccc3)[C@@H]2c2ccc(CO)cc2)cc1', 'Calmodulin-1 (Homo sapiens)', 'condition not met'),
  ('N#Cc1ccc(NN2C(C(O)c3ccc([N+](=O)[O-])cc3)C=CC3C(=O)N(c4ccccc4)C(=O)C32)cc1 (centres undefined)', 'Calmodulin-1 (Homo sapiens)', 'condition met'),
  ('O=C1C[C@@](C(=O)NC2CC2)(c2ccc([N+](=O)[O-])cc2)[C@@H](c2ccc(CO)cc2)N1CC12CC3CC(CC(C3)C1)C2', 'Calmodulin-1 (Homo sapiens)', 'condition met'),
  ('C=C[C@@H](COC(C)=O)N(Cc1ccc([N+](=O)[O-])cc1)S(=O)(=O)c1ccc(Br)cc1', 'Calmodulin-1 (Homo sapiens)', 'condition met'),
  ('COC(=O)[C@@]1(Cc2ccc(OC)cc2)[C@H]2c3cc(C(=O)N4CCCC4)n(Cc4cc(F)cc5c4OCOC5)c3C[C@H]2CN1C(=O)c1ccccc1', 'Calmodulin-1 (Homo sapiens)', 'condition met');

# bool: composite z-score of `C=CCNC(=O)[C@@H]1[C@H]2C(=O)O[C@H](c3ccccc3)[C@H](c3ccccc3)N2[C@H](c2ccccc2OCCO)[C@@]12C(=O)Nc1ccc(C#CC3=CCCCC3)cc12` >= -0.03
condition met

# bool: composite z-score of C=CC(COC(C)=O)NS(=O)(=O)c1ccc(Br)cc1 (centres undefined) >= -0.03
condition not met

# bool: composite z-score of `CC1=C2[C@@H](CCc3ccccc3)OB(O)C[C@@H]2n2c(=O)n(-c3ccccc3)c(=O)n2C1` >= -0.03
condition met

# bool: composite z-score of `COCCOC(=O)N1C(=O)[C@@]2(c3cc(C#CCC(C(=O)OC)C(=O)OC)ccc31)[C@H](c1ccc(O)cc1)N1[C@H](c3ccccc3)[C@H](c3ccccc3)OC(=O)[C@H]1[C@@H]2C(N)=O` >= -0.03
condition met

# bool: composite z-score of `COc1ccc([Si](C)(C)[C@H]2[C@H](CCn3cc([C@H](O)c4ccccc4)nn3)O[C@@]3(C(=O)N(Cc4cccc(N5CCC5=O)c4)c4ccccc43)[C@@H]2C)cc1` >= -0.03
condition met

# bool: composite z-score of `O=C1O[C@H](c2ccccc2)[C@H](c2ccccc2)N2[C@H]1[C@@H](C(=O)N1CCN(c3ncccn3)CC1)[C@]1(C(=O)Nc3ccccc31)[C@H]2c1ccc(OCCO)cc1` >= -0.03
condition not met

# bool: composite z-score of `C=CCNC(=O)[C@H]1[C@@H]2C(=O)O[C@@H](c3ccccc3)[C@@H](c3ccccc3)N2[C@@H](c2ccc(O)cc2)[C@]12C(=O)N(C(=O)OCCOC)c1ccc(C#CCCO)cc12` >= -0.03
condition met

# bool: composite z-score of C=CCC(OC(C)=O)[C@@H]1[C@@H](N(Cc2cccc3ccccc23)C(=O)c2ccc(C)cc2)c2cc(OCCCO)ccc2N1C(=O)Cc1ccc(OC)cc1 (some centres undefined) >= -0.03
condition met

# bool: composite z-score of `CCOC(=O)C[C@H]1[C@H](OC(=O)Cc2ccc3c(c2)OCO3)[C@@H](NC(=O)C2CCCCC2)c2cc(OCCCO)ccc2N1C(=O)Cc1ccc(OC)cc1` >= -0.03
condition met

# bool: composite z-score of `COc1ccc([Si](C)(C)[C@@H]2[C@@H](CCn3cc([C@H](O)c4ccccc4)nn3)O[C@]3(C(=O)N(Cc4cccc(N5CCOC5=O)c4)c4ccccc43)[C@H]2C)cc1` >= -0.03
condition not met

# bool: composite z-score of `C=CC[C@@]1(C(=O)N2CCOCC2)N=C(c2ccc(OCCCO)cc2)O[C@@H]1c1ccccc1N=[N+]=[N-]` >= -0.03
condition met

# bool: composite z-score of CN1CCC(CCCO)=CC1c1ccc(CN2CCCC2)cc1 (centres undefined) >= -0.03
condition not met

# bool: composite z-score of `O=C1O[C@@H](c2ccccc2)[C@@H](c2ccccc2)N2[C@@H](c3ccc(O)cc3)[C@]3(C(=O)Nc4ccc(C#CC5=CCCCC5)cc43)[C@@H](C(=O)O)[C@H]12` >= -0.03
condition met

# bool: composite z-score of CCCCCN1CC=CC23O[C@@H]4C=CCOC(=O)[C@@H]4[C@H]2C(=O)N(CCCO)[C@@H]3C1=O (some centres undefined) >= -0.03
condition not met

# bool: composite z-score of `CC(=O)NCCCC[C@@H]1NC(=O)[C@@H]2C[C@H](C(=O)NCCCCCCNC(=O)CS)[C@H](c3ccc(O)cc3)N2C1=O` >= -0.03
condition met

# bool: composite z-score of `CC(C)N1C(=O)c2ccccc2[C@@H](C(=O)NCCCN(C)C)[C@@H]1c1ccc(CO)cc1` >= -0.03
condition met

# bool: composite z-score of `CC(C)CNC(=O)[C@@]1(c2ccc([N+](=O)[O-])cc2)CC(=O)N(CC23CC4CC(CC(C4)C2)C3)[C@@H]1c1ccc(CO)cc1` >= -0.03
condition not met
